A collection of compounds and their measured IC50
Test system: Hedgehog pathway activation on 10T1/2/Smo#3 cells (C3H10T1/2 cells transfected with human Smoothened receptor)
Assay: Hedgehog pathway activation on 10T1/2/Smo#3 cells measured by ALP activity
Assay type: cell-based
Settings: Mus musculus, C3H 10T1/2, 10T1/2/Smo#3 cells, hShh activation, ALP activity; read-out: 10T1/2/Smo#3 ALP activity (hShh Activation)

Reference set, count: 3
The compound listed as CSCCNc1ccc2nc(-c3ccc(C(F)(F)F)c(NC(=O)C(C)(C)C)c3)cn2n1 [Example 300] shows IC50 equal to 300 to 3000 nM

The compound listed as COc1ccc2nc(-c3ccc(C)c(NC(=O)c4ccccc4F)c3)cn2n1 [Example 96] shows IC50 equal to 300 to 3000 nM

The compound listed as Cc1ccc(-c2cn3nc(-c4ccc(C(=O)NO)cc4C(F)(F)F)ccc3n2)cc1NC(=O)C(C)(C)C [Example 437] shows IC50 equal to < 300 nM

Next:
The compound listed as Fc1ccc(CN2CCN(c3ccc4nc(-c5ccccc5)c(Cl)n4n3)CC2)cc1 [Example 144] shows IC50 equal to 3000 to 30000 nM

The compound listed as Cc1ccc(-c2cn3nc(-c4cccnc4C(F)(F)F)ccc3n2)cc1NC(=O)NC(C)(C)C [Example 646] shows IC50 equal to < 300 nM

The compound listed as CC(C)(C)C(=O)Nc1cc(-c2cn3nc(-c4ccccn4)ccc3n2)ccc1C(F)(F)F [Example 141] shows IC50 equal to 3000 to 30000 nM

The compound listed as CC(C)(C)C(=O)Nc1cc(-c2cn3nc(N4CCC(F)(F)CC4)ccc3n2)ccc1C(F)(F)F [Example 235] shows IC50 equal to < 300 nM

* * *

Tested on: Hedgehog pathway activation on 10T1/2/Smo#3 cells (C3H10T1/2 cells transfected with human Smoothened receptor)
Experiment: Hedgehog pathway activation on 10T1/2/Smo#3 cells measured by ALP activity
Type: cell-based
Details: Mus musculus, C3H 10T1/2, 10T1/2/Smo#3 cells, hShh activation, ALP activity; read-out: 10T1/2/Smo#3 ALP activity (hShh Activation)
MEASURE: IC50

The molecule listed as `Cc1c(NC(=O)C(C)(C)C)cccc1-c1cn2nc(-c3ccccc3F)ccc2n1` shows IC50 equal to 0.3 to 3 µM

The molecule listed as `CC(C)(C)C(=O)Nc1cc(-c2cn3nc(-c4cncc5ccccc45)ccc3n2)ccc1C(F)(F)F` shows IC50 equal to 0.3 to 3 µM

Next:
The molecule listed as `Cc1ccc(-c2cn3nc(-c4cc(O)ccc4C(F)(F)F)ccc3n2)cc1NC(=O)C(C)(C)C` shows IC50 equal to < 0.3 µM

The molecule listed as `Cc1ccc(-c2cn3nc(-c4cccnc4C(F)(F)F)ccc3n2)cc1NC(=O)c1cccc(C=CC(=O)Nc2ccccc2N)c1` shows IC50 equal to < 0.3 µM

The molecule listed as `CC(C)(C)C(=O)Nc1cc(-c2cn3nc(-c4ccccc4F)ccc3n2)ccc1OC(F)(F)F` shows IC50 equal to < 0.3 µM

* * *

A collection of compounds and their measured IC50
System: Hedgehog pathway activation on 10T1/2/Smo#3 cells (C3H10T1/2 cells transfected with human Smoothened receptor)
Assay: Hedgehog pathway activation on 10T1/2/Smo#3 cells measured by ALP activity
Format: cell-based
Settings: Mus musculus, C3H 10T1/2, 10T1/2/Smo#3 cells, hShh activation, ALP activity; read-out: 10T1/2/Smo#3 ALP activity (hShh Activation)

Reference set, count: 4
The compound listed as COc1ccc2nc(-c3ccc(C)c(NC(=O)C(C)(C)C)c3)c(Cl)n2n1 [Example 109] shows IC50 equal to 3 to 30 µM

The compound listed as Cc1ccc(-c2cn3nc(-c4c(F)cccc4C(F)(F)F)ccc3n2)cc1NC(=O)C(C)(C)C [Example 397] shows IC50 equal to < 0.3 µM

The compound listed as CCOc1ccc2nc(-c3ccc(CC)c(NC(=O)C(C)(C)C)c3)cn2n1 [Example 283] shows IC50 equal to 0.3 to 3 µM

The compound listed as Cc1ccc(-c2cn3nc(-c4cccnc4C(F)(F)F)ccc3n2)cc1C(=O)NC(C)(C)C [Example 483] shows IC50 equal to < 0.3 µM

Next:
The compound listed as CC(C)(C)C(=O)Nc1cc(-c2cn3cc(-c4ccccc4F)ncc3n2)ccc1C(F)(F)F [Example 86] shows IC50 equal to < 0.3 µM

The compound listed as CCc1ccc(-c2cn3nc(-c4cccnc4C(F)(F)F)ccc3n2)cc1NC(=O)C(C)(C)C [Example 352] shows IC50 equal to < 0.3 µM

The compound listed as CC(C)(C)C(=O)Nc1cc(-c2cn3nc(C#N)ccc3n2)ccc1C(F)(F)F [Example 173] shows IC50 equal to 3 to 30 µM

The compound listed as CC(=O)NC1CCN(c2ccc3nc(-c4ccc(C)c(NC(=O)C(C)(C)C)c4)c(C)n3n2)C1 (centres unmarked) [Example 363] shows IC50 equal to 0.3 to 3 µM
